Sourced from patent EP4700040A1

Tested on: PCT
Assay: Second library screening for PCT detection, clone supernatants, retest with CTZ-h (Example 4)
Assay type: biochemical, human
Settings: luminescence signal value with MBP-PCT 3.3 ng/ml; large subunit-rSCFV5 12.5 nM; CTZ-h 25 µM, 60 s
Label true (1) when PCT+ is strictly below 9000; at or above that, label false (0).

Identify whether the sequence VDGYRLFERKS [RC-203] records PCT+ below 9000.
false (0)

State whether 9000 exceeds PCT+ recorded for VSGYRIFERKW [RC-206] .
true (1)

Is the reported PCT+ for VDGWRLFDKKS [RC-175] strictly below 9000?
true (1)

For VEGYRIFEKKW [RC-286] , is the recorded PCT+ below the cut-off of 9000?
true (1)

is_below(PCT+, 9000) for VSGYRLFDKKS [RC-134] ?
false (0)

For this sequence, is PCT+ lower than 9000? VEGYRLFEKVS [RC-042]
true (1)

Dear reviewer, please state whether VSGWRIFDKKS [RC-124] has PCT+ strictly beneath 9000.
false (0)

----------
Tested on: PCT
Assay: Luciferase dual-antibody complementary activation assay for PCT detection, clone supernatants, retest with CTZ-h (Example 1)
Format: biochemical, human
Settings: RLU antigen+/RLU antigen-; MBP-PCT 3.3 ng/ml; CTZ-h
Kindly state Signal-to-noise ratio for each of the entries shown.
Respond with the number and no other words.

May I ask what Signal-to-noise ratio has been recorded for VEGYRLFKREL [RB152] ?
40

If you can, please state the reported Signal-to-noise ratio value of VEGYRLFNRKS [RB075] .
27.1

Tell me the measured Signal-to-noise ratio of VEGYRLFEKVW [RB085] , please.
38.2

What measured Signal-to-noise ratio goes with VEGYRLHEKIS [RA128] ?
45.2

Entry VEGYRLFDRKW [RB186] : reported Signal-to-noise ratio = ?
45.1

Query: Signal-to-noise ratio; subject: VSGWRIHEKIS [RA120]
36.9

Form field: reported Signal-to-noise ratio of VEGYRLFDRVW [RB128]
38.8

Query (sequence): VEGWRLHEKIS [RA116] ; field requested: Signal-to-noise ratio
45.5

----------
Tested on: PCT
Assay: Sensitivity and linear range for PCT detection of preferred small subunits (Example 5)
Format: biochemical, human
Settings: PCT 1000 (pg/ml); normalized
Criterion: luminescence value meeting or surpassing 30000. Met: Condition met. Not met: Condition not met.

Quick check, luminescence value >= 30000? VDGWRLFDKKS [RC-224]
Condition not met

Would you say VEGYRIFEKKW [RC-286] shows luminescence value at minimum 30000?
Condition not met

Is reported luminescence value greater than or equal to 30000 here: VSGYRLFDKKS [RC-187]
Condition not met

Reported luminescence value at or above 30000? VEGYRLFDKVS [RC-215]
Condition met

In plain terms: is recorded luminescence value at least 30000 for VSGYRLFDKKW [RC-099] ?
Condition not met

hey, is luminescence value for this one >= 30000? VSGYRLFDKVS [RC-178]
Condition met

# bool: luminescence value of VTGYRLFEEIL [P114, reference compound] >= 30000
Condition not met

Is reported luminescence value greater than or equal to 30000 here: VEGYRLFDRKS [RC-218]
Condition met

Answer whether luminescence value of VDGYRLFEKVS [RC-263] is greater than or equal to 30000.
Condition not met
